experimental_details: reducers of TRPM1 reporter luminescence, concentration series – cell-based, SK-MEL-5, cherry-picked, set 3, MITF inhibitor project, dose response (AID 493073)
measurement_context: SK-MEL-5 TRPM1 promoter luciferase, 24 h; series mostly up to 35 µM
The whole screen tested about 1,200 compounds, of which about 810 (68%) were called active. The set was probably picked from earlier hits. Only a sample is shown. Measured potencies and affinities stand elsewhere.
measured_attribute: outcome

{"compound": "Cc1ccc(COc2ccc(C)nc2[N+](=O)[O-])cc1", "measured_attribute": "outcome", "recorded_value": "inactive"}
{"compound": "COCn1c(COc2ccccc2)nc2ccccc21", "measured_attribute": "outcome", "recorded_value": "inactive"}
{"compound": "O=C(Cc1ccccc1)Nc1ccc(NC(=O)c2ccco2)nc1", "measured_attribute": "outcome", "recorded_value": "inactive"}
{"compound": "CC(C)C(NC(=O)OCc1ccccc1)C(=O)OCC(=O)N1CCCCC1 (stereo not given)", "measured_attribute": "outcome", "recorded_value": "inactive"}
{"compound": "Cc1ccc(OCC(=O)Nc2ccccc2F)cc1", "measured_attribute": "outcome", "recorded_value": "inactive"}
{"compound": "CCc1nc2oc3ccc(C)cc3c(=O)c2cc1C(=O)OC", "measured_attribute": "outcome", "recorded_value": "inactive"}
{"compound": "CN(C)c1ccc(NC(=O)Nc2ccc3c(c2)nnn3C)cc1", "measured_attribute": "outcome", "recorded_value": "inactive"}
{"compound": "Cc1cccc(-c2nc(C#N)c(NCc3ccco3)o2)c1", "measured_attribute": "outcome", "recorded_value": "inactive"}
{"compound": "O=C(Nc1ccc(-c2cn3c(n2)SCC3)cc1)c1ccco1", "measured_attribute": "outcome", "recorded_value": "inactive"}
{"compound": "O=C(Nc1ccccc1F)c1ccc2c(c1)OCO2", "measured_attribute": "outcome", "recorded_value": "inactive"}
{"compound": "CCOc1cc(/C=N/N=C(N)N)ccc1OCc1ccc(Cl)cc1", "measured_attribute": "outcome", "recorded_value": "inactive"}
{"compound": "COc1c(C)cccc1C(=O)Nc1ccc(N2CCN(S(C)(=O)=O)CC2)cc1", "measured_attribute": "outcome", "recorded_value": "inactive"}
{"compound": "CN(C)c1ccc(CNc2ccccn2)cc1", "measured_attribute": "outcome", "recorded_value": "inactive"}
{"compound": "COc1cc(/C=N/N=C(N)N)ccc1OCc1ccc(Cl)cc1", "measured_attribute": "outcome", "recorded_value": "inactive"}
{"compound": "COc1cc(CN2CCC(C(N)=O)CC2)ccc1OCc1ccccc1", "measured_attribute": "outcome", "recorded_value": "inactive"}
{"compound": "CCC(=O)Nc1cc(C(=O)OCC(=O)c2ccccc2Cl)ccc1C", "measured_attribute": "outcome", "recorded_value": "inactive"}
{"compound": "CC1Cc2cc(-c3csc(N)n3)ccc2O1 (stereo not given)", "measured_attribute": "outcome", "recorded_value": "inactive"}
{"compound": "Cc1[nH]nc(Nc2ccc(Br)cc2)c1[N+](=O)[O-]", "measured_attribute": "outcome", "recorded_value": "inactive"}
{"compound": "COc1ccc(C(=O)CCNc2ccc(F)cc2)cc1", "measured_attribute": "outcome", "recorded_value": "inactive"}
{"compound": "COc1ccc(-c2noc(-c3cccs3)n2)cc1OC", "measured_attribute": "outcome", "recorded_value": "inactive"}
{"compound": "Cc1ccc(-c2nc(C#N)c(NCc3ccco3)o2)cc1", "measured_attribute": "outcome", "recorded_value": "inactive"}
{"compound": "CCOC(=O)c1ccc2nc(C)c(CCC(C)=O)c(Cl)c2c1", "measured_attribute": "outcome", "recorded_value": "inactive"}
{"compound": "Cc1nc(NCCOc2ccccc2)sc1C(=O)Nc1ccccc1", "measured_attribute": "outcome", "recorded_value": "inactive"}
{"compound": "CCOc1ccc2nc(NC(=O)Cc3cccs3)sc2c1", "measured_attribute": "outcome", "recorded_value": "inactive"}
{"compound": "Fc1cccc(Cl)c1CSc1nnc(-c2ccncc2)o1", "measured_attribute": "outcome", "recorded_value": "inactive"}
